test system: MALME-3M melanoma; test: NCI tumour cell line growth inhibition, 48 h; in the data active = GI50 below about 0.43 µM; inactive = the rest
Choose one outcome from this list and give only that: active, inactive

Study these solved cases before continuing.
{"compound": "COc1cc(Nc2c(C#N)cnc3cc(OCCCN4CCN(C)CC4)c(OC)cc23)c(Cl)cc1Cl", "qualitative_label": "inactive"}
{"compound": "CCCCCCCCC/C=C/C=C/C(=O)NCC(=O)NC1C(O)C(O)C(Nc2ncnc3nc[nH]c23)OC1C(O)CO (centres undefined)", "qualitative_label": "active"}
{"compound": "CCC1CN2C(=N1)c1ccccc1-c1cc(Cl)ccc12 (centres undefined)", "qualitative_label": "inactive"}

So what was the verdict on `CC1(N)CCN(c2cccnc2NC(=O)c2nc(-c3ncccc3C(F)(F)F)cnc2N)CC1` in this test?
inactive

So what was the verdict on `O=C1C(N2CC2)=C(N2CC2)C(=O)C(N2CC2)=C1N1CC1` in this test?
active

Test call, this compound: C=CC1CN2CCC1CC2C(O)c1ccnc2ccc(OC)cc12 (centres undefined)
inactive

----------
tested on: DMS 114 small cell lung; assay: NCI tumour cell line growth inhibition, 48 h
quantity_kind: TGI

{"compound": "CN(C)C(=S)/N=c1\\ssc(=S)n1Cc1cccnc1", "TGI": "3.89 µM"}
{"compound": "Clc1ccc(N=Nc2nc3ccccc3nc2N=Nc2ccc(Cl)cc2Cl)c(Cl)c1", "TGI": "> 100 µM"}
{"compound": "COc1ccc2c(c1)[n+]([O-])c(-c1ccc(OC)c(OC)c1)c(N)[n+]2[O-]", "TGI": "> 100 µM"}
{"compound": "[N-]=[N+]=CC(=O)c1ccccc1C#CCCc1ccccc1", "TGI": "23.6 µM"}
{"compound": "CCOC1=C2C(=O)OC(=O)C2C2CCCCC2=C1 (stereo not given)", "TGI": "> 100 µM"}
{"compound": "COc1ccc(N=Cc2ccc(N(CCC#N)S(=O)(=O)c3ccccc3)cc2)cc1", "TGI": "> 100 µM"}
{"compound": "COC(=O)c1ccccc1OCc1cc(=O)oc2ccc(C)cc12", "TGI": "> 100 µM"}
{"compound": "CC(C)CC(NC(=O)OC(C)(C)C)C(=O)Nc1ccc(Nc2nc(F)nc(-c3c4ccccc4c4n3CCS4)n2)cc1 (stereo not given)", "TGI": "37.5 µM"}
{"compound": "CC(=O)NNc1nc(C)c(C(=O)/C=C/c2ccccc2Cl)s1", "TGI": "> 100 µM"}

Now look at this entry.
Lab request: please report TGI under test system DMS 114 small cell lung for `c1ccc(C(c2ccccc2)c2cccnc2)cc1`
> 100 µM

----------
system: CCRF-CEM leukemia; assay: NCI tumour cell line growth inhibition, 48 h; in the data active means GI50 below about 0.43 µM; inactive means the rest
// allowed return values: 1 = active, -1 = inactive

Some solved entries appear below for comparison.
{"compound": "N.N.N.N.N.[Cl-].[Co+3].c1ccc(-c2nn[n-]n2)cc1", "qualitative_label": -1}
{"compound": "Nc1nc(N)c2nc(CNc3ccc(C(=O)NC(CC(=O)O)C(=O)O)cc3)cnc2n1 (centres undefined)", "qualitative_label": 1}
{"compound": "COc1ccc(C(=O)/C=C/c2cccc([N+](=O)[O-])c2)c(OC)c1", "qualitative_label": -1}
{"compound": "CNC(=O)c1cccc2cc(Oc3ccnc4cc(OCC5(N)CC5)c(OC)cc34)ccc12", "qualitative_label": -1}
{"compound": "COc1ccc(/C=C/C(=O)c2ccc(O)c(CN3CCN(c4cc5c(cc4F)c(=O)c(C(=O)O)cn5C4CC4)CC3)c2)cc1", "qualitative_label": -1}
{"compound": "CCN(Cc1ccc(F)cc1)c1ccc(CO)c(F)c1", "qualitative_label": -1}

Could you kindly confirm the outcome this assay logged for Cc1ccc(C(CC(=O)c2ccccc2)C2C(=O)NC(=O)NC2=O)cc1 (centres undefined) ?
-1

I'd appreciate the recorded outcome for CC1OC(n2c3ccccc3c3c4c(c5c6ccccc6[nH]c5c32)C(=O)N(CCN[C@@H]2CCC[C@H]2N)C4=O)CC(O)C1O (some centres undefined) from this test.
-1

Recorded call for `O=C(Nc1cccc(-n2cc(-c3ccncc3)c(-c3ccc(Cl)c(O)c3)n2)c1)c1ccc(N2CCOCC2)c(C(F)(F)F)c1` ?
-1
